Assay: Selectivity index, ratio of IC50 for CHO cells to IC50 for chloroquine-sensitive Plasmodium falciparum NF54
Format: toxicity, cell-based
Details: hamster; read-out: Ratio IC50
# note: boundary value 40 maps to N; selectivity ratio below it maps to Y

[Q] # TODO verify selectivity ratio < 40 strictly for this compound: c1ccc(CNC(CNc2ccccc2)COc2cccc3cnccc23)cc1 (stereo unspecified)
[A] N

[Q] Take the compound COc1ccccc1CN1CC1COc1cccc2cnccc12 (stereo unspecified) and say whether its selectivity ratio is less than 40.
[A] Y

[Q] A record lists [Br-].c1ccc(CN2CC2COc2cccc3c[n+](Cc4ccccc4)ccc23)cc1 (stereo unspecified) . Is its selectivity ratio below 40?
[A] N

Further cases:
[Q] For BrC(COc1cccc2c[n+](Cc3ccccc3)ccc12)CN(Cc1ccccc1)Cc1ccccc1.[Br-] (stereo unspecified) , is the recorded selectivity ratio below the cut-off of 40?
[A] N

[Q] Bench note: check whether OCC(COc1cccc2cnccc12)NCc1ccccc1 (stereo unspecified) shows selectivity ratio below 40
[A] Y

[Q] Given Cn1nc(C(F)(F)F)cc1OCC(CO)NCc1cnc2ccccc2c1 (stereo unspecified) , is recorded selectivity ratio strictly lower than 40?
[A] Y
